- Tested on: CHO cells
- Method notes: In situ binding of [125I]AAP10 on intact CHO cells
- Conditions used: overnight at 4° C
Where a SMILES comes first, the peptide text is derived from it. [ ]: non-standard residue; d: D form. The star is where a group is joined. dTyr(3,5-I2) = N[C@H](Cc1cc(I)c(O)c(I)c1)C(=O)O; X1 = [N-]=[N+]=Nc1cc(O)c(C(=O)*)cc1I; Hyp = O=C(O)[C@@H]1C[C@@H](O)CN1; dHyp = O=C(O)[C@H]1C[C@H](O)CN1
Field: IC50. Provide a value for each of the compounds that follow.
Numbers only, in µM.

[[record]]
compound = "CC(=O)N[C@H](Cc1cc(I)c(O)c(I)c1)C(=O)N1CCC[C@@H]1C(=O)N1C[C@@H](O)C[C@@H]1C(=O)NCC(=O)N[C@H](C)C(=O)NCC(N)=O [Compound 24] (Ac-[dTyr(3,5-I2)][dP][dHyp]G[dA]G-NH2)"
measurement_target = "CHO cells"
value_measured = 0.065


IC50 for C[C@H](NC(=O)CNC(=O)[C@@H]1C[C@@H](O)CN1C(=O)[C@@H]1CCCN1C(=O)c1cc(I)c(N=[N+]=[N-])cc1O)C(=O)NCC(N)=O [Compound 32] (X1-P[Hyp]GAG-NH2) is 0.0005
